# Test System: bovine trypsin (Bos taurus)
# Sequence (P00760 24-246): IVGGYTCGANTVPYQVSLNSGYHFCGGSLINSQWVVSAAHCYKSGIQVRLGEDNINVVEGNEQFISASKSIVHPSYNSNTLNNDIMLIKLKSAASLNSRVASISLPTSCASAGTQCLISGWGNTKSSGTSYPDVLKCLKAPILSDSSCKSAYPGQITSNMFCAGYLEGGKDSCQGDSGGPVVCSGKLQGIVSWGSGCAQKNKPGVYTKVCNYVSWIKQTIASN
# Test: Antitrypsin activity: inhibition of S-2238 decomposition
# Format: biochemical
# Condition Label: Table 2; S-2238 substrate, pH 8.1, 37° C.; read-out: Trypsin S-2238 (I50)
Structures can show the parent of a compound that is named as a salt.
Measurement Kind: IC50 (µM)

Consider the following illustrative entries.
Compound	Readout Unit	Val
CC(=O)c1ccc(NC(=O)[C@H](Cc2ccc(OCc3ccncc3)cc2)NC(=O)[C@H]2CC[C@H](CN)CC2)cc1 [compound 68]	µM	1
CC(=O)c1ccc(NC(=O)[C@H](Cc2ccc([N+](=O)[O-])cc2)NC(=O)[C@H]2CC[C@H](CN)CC2)cc1 [compound 130, hydrochloride]	µM	0.5
NC[C@H]1CC[C@H](C(=O)N[C@@H](Cc2ccc(Oc3cc(Cl)ccc3[N+](=O)[O-])cc2)C(=O)Nc2ccncc2)CC1 [Compound No. 137, dihydrochloride]	µM	1.2

A. NC[C@H]1CC[C@H](C(=O)N[C@@H](Cc2ccc(OCc3cccc(Cl)c3)cc2)C(=O)Nc2cccc(Cl)c2)CC1 [compound 66]
B. NC[C@H]1CC[C@H](C(=O)N[C@@H](Cc2ccc(OCc3ccccc3)cc2)C(=O)N2CCC(C(=O)c3ccccc3)CC2)CC1 [compound 48]
C. NC[C@H]1CC[C@H](C(=O)N[C@@H](Cc2ccc(OCc3ccccc3)cc2)C(=O)NC2CC3CCC2C3)CC1 (stereo partly drawn) [compound 64]
D. CC(=O)c1ccc(NC(=O)[C@H](Cc2ccc(Oc3ccc([N+](=O)[O-])cn3)cc2)NC(=O)[C@H]2CC[C@H](CN)CC2)cc1 [Compound No. 121, hydrochloride]
E. NCc1ccc(C(=O)N[C@@H](Cc2ccc(OCc3ccccc3)cc2)C(=O)NC2CC3CCC2C3)cc1 (stereo partly drawn) [compound 62]
Query: Arrange these compounds by their IC50, starting with the largest number. Present the labels in the sequence the task asks for.
Reply: B, A, E, C, D
(B: 22 µM, A: 3.9 µM, E: 2.4 µM, C: 1.1 µM, D: 0.24 µM)

----------
# Test System: human plasmin (Homo sapiens, UniProt P00747)
# Sequence (P00747 581-810 limits assumed): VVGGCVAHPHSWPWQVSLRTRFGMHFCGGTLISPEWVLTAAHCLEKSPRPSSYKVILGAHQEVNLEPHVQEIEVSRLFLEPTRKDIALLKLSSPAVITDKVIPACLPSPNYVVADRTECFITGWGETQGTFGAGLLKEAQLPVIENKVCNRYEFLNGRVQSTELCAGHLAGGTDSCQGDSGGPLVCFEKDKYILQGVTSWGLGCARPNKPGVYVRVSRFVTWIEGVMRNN
# Sequence (P00747 97-580 partner limits assumed): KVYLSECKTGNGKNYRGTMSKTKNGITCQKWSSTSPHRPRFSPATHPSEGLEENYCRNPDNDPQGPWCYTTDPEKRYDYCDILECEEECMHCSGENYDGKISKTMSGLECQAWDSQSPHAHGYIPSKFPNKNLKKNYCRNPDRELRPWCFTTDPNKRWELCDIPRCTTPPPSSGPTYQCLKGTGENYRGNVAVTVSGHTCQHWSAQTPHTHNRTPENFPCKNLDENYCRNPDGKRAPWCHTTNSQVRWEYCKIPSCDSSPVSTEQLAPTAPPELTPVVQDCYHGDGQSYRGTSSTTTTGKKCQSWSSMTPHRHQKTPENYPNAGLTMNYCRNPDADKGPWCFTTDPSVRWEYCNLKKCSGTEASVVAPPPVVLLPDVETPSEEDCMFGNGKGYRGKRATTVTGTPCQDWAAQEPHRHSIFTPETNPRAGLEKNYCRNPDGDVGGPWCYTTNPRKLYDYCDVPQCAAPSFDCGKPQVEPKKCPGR
# Test: biochemical
# Condition Label: read-out: Plasmin S-2251 (I50)
pIC50: −log10 of the molar value.
Measurement Kind: pIC50

> print(dat)
                                   compound   val
1  CC(=O)c1ccc(NC(=O)[C@H](Cc2ccc(OCc3ccccc3)cc2)NC(=O)[C@H]2CC[C@H](CN)CC2)cc1 [Compound No. 3]  5.74
2  CC(=O)c1ccc(NC(=O)[C@H](Cc2ccc(OCc3cccc(F)c3)cc2)NC(=O)[C@H]2CC[C@H](CN)CC2)cc1 [compound 56]  5.72

a. NC[C@H]1CC[C@H](C(=O)N[C@@H](Cc2ccc(OCc3ccccc3)cc2)C(=O)Nc2cccc(Cl)c2)CC1 [compound 36]
b. CC(=O)c1ccc(NC(=O)[C@H](Cc2ccc(OCc3ccc(F)cc3)cc2)NC(=O)[C@H]2CC[C@H](CN)CC2)cc1 [Compound No. 12]
Query: Please indicate which item has the smaller measured pIC50: a versus b In your reply, give the label of the chosen option.
Reply: a
